measured.on: T1, NFS1-ISD11-ACP (SDA) complex (human | E. coli, UniProt Q9Y697 56-457; Q9HD34 1-91; P0A6A8 1-78)
T1 construct: human cysteine desulfurase NFS1, non-tagged, construct Δ1-55; human ISD11 (LYRM4), His-tagged; E. coli acyl carrier protein (ACP) of the expression host, co-purified with NFS1-ISD11; PLP was added during the purification; also called NFS1-ISD11-ACP desulfurase complex; NFS1-ISD11 complex; source: co-purified with E. coli ACP; copies: + +
test.summary: BLI; biotinylated ISCU on streptavidin sensors, SDA 10 uM to 1.56 nM in solution; 25 °C; 50 mM HEPES pH 7.5, 200 mM NaCl, 5% glycerol, 2 mM TCEP, 5 mM DTT, 0.5 mg/mL BSA, with 300 uM EDTA (zinc-depleted ISCU); Kd from response vs. [NFS1], one site-specific binding fit
experimental.context: both partners purified
reported.metric: Kd (nM)
Kindly answer with a numeric value in nM, unit omitted.

binder	test.result
biotinylated human ISCU M140L (Δ1-34) (natural protein, UniProt Q9H1K1 35-167, looked up, biotin (site not stated), human ISCU, construct Δ1-34 of the 167-aa precursor, variant M140L; source: E. coli BL21 (DE3)-R3-pRARE2, purified (Ni Sepharose, Superdex S75, His-tag removed by TEV)) YHKKVVDHYENPRNVGSLDKTSKNVGTGLVGAPACGDVMKLQIQVDEKGKIVDARFKTFGCGSAIASSSLATEWVKGKTVEEALTIKNTDIAKELCLPPVKLHCSLLAEDAIKAALADYKLKQEPKKGEAEKK	110
biotinylated human ISCU wild-type (Δ1-34) (natural protein, UniProt Q9H1K1 35-167, looked up, biotin (site not stated), human ISCU, construct Δ1-34 of the 167-aa precursor (133-aa mature protein without the mitochondrial signal peptide); the two conditions are two assays; Measured mass of the apo-protein 14604 Da; also called ISCUWT; WT; source: E. coli BL21 (DE3)-R3-pRARE2, purified (Ni Sepharose, Superdex S75, His-tag removed by TEV)) YHKKVVDHYENPRNVGSLDKTSKNVGTGLVGAPACGDVMKLQIQVDEKGKIVDARFKTFGCGSAIASSSLATEWVKGKTVEEALTIKNTDIAKELCLPPVKLHCSMLAEDAIKAALADYKLKQEPKKGEAEKK	87.8
biotinylated human ISCU M140V (Δ1-34) (natural protein, UniProt Q9H1K1 35-167, looked up, biotin (site not stated), human ISCU, construct Δ1-34 of the 167-aa precursor, variant M140V; source: E. coli BL21 (DE3)-R3-pRARE2, purified (Ni Sepharose, Superdex S75, His-tag removed by TEV)) YHKKVVDHYENPRNVGSLDKTSKNVGTGLVGAPACGDVMKLQIQVDEKGKIVDARFKTFGCGSAIASSSLATEWVKGKTVEEALTIKNTDIAKELCLPPVKLHCSVLAEDAIKAALADYKLKQEPKKGEAEKK	85.5

What the record says about biotinylated human ISCU M140I (Δ1-34) (natural protein, UniProt Q9H1K1 35-167, looked up, biotin (site not stated), human ISCU, construct Δ1-34 of the 167-aa precursor, variant M140I; source: E. coli BL21 (DE3)-R3-pRARE2, purified (Ni Sepharose, Superdex S75, His-tag removed by TEV)) YHKKVVDHYENPRNVGSLDKTSKNVGTGLVGAPACGDVMKLQIQVDEKGKIVDARFKTFGCGSAIASSSLATEWVKGKTVEEALTIKNTDIAKELCLPPVKLHCSILAEDAIKAALADYKLKQEPKKGEAEKK : Kd is 97.3
